// pIC50 lookup, one value per entry
- system.under.test: Mucosa-associated lymphoid tissue lymphoma translocation protein 1 (Homo sapiens)
- Sequence (Q9UDY8 whole entry): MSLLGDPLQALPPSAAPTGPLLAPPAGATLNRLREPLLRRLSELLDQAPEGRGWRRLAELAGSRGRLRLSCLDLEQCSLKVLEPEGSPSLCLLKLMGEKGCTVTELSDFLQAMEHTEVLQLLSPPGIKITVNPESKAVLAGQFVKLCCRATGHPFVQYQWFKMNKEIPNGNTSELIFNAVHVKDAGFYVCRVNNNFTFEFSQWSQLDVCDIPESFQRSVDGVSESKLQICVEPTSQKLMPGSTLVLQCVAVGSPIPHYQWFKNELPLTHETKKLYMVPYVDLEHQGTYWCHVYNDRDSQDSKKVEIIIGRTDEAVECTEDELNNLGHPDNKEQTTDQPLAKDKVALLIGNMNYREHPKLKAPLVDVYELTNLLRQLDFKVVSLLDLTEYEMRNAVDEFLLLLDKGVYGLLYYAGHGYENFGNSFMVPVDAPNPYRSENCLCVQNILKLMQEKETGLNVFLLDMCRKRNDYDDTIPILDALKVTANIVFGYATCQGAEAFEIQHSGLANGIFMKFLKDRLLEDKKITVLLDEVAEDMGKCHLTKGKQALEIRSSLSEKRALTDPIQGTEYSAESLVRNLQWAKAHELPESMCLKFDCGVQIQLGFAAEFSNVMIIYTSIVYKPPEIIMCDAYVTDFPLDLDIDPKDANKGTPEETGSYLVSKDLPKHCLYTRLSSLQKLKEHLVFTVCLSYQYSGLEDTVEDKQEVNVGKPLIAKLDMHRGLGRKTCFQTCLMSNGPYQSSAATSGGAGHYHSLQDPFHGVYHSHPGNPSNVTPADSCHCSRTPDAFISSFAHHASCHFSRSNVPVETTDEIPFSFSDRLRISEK
- experiment.notes: MALT1 Protease Assay 2
pIC50: −log10 of the molar value.
readout.label: pIC50

>  <structure.smiles.string>
C[C@@]1(C(F)(F)F)CN(C(=O)Nc2cnc(-n3nccn3)c(C#N)c2)c2cnc3cc(F)nn3c21

>  <readout.label>
pIC50

>  <meas.value>
> 8.00

$$$$
>  <structure.smiles.string>
Cc1nnc(C(F)F)cc1NC(=O)N1C[C@@](C)(C(F)(F)F)c2c1cnc1cc(Cl)nn21

>  <readout.label>
pIC50

>  <meas.value>
6.00 to 7.00

$$$$
>  <structure.smiles.string>
CN(C)C(=O)c1ncc(NC(=O)N2C[C@@](C)(C(F)(F)F)c3c2cnc2cc(Cl)nn32)cc1C(F)F

>  <readout.label>
pIC50

>  <meas.value>
> 8.00

$$$$
>  <structure.smiles.string>
C[C@@]1(C(F)(F)F)CN(C(=O)Nc2cnc(-n3nccn3)c(Cl)c2)c2cnc3cc(F)nn3c21

>  <readout.label>
pIC50

>  <meas.value>
> 8.00

$$$$
>  <structure.smiles.string>
C[C@]1(C(F)(F)F)CN(C(=O)Nc2ccnc(C(F)F)c2)c2cnc3cc(F)nn3c21

>  <readout.label>
pIC50

>  <meas.value>
6.00 to 7.00

$$$$
>  <structure.smiles.string>
C[S@+]([O-])c1ccc(NC(=O)N2C[C@@](C)(C(F)(F)F)c3c2cnc2cc(Cl)nn32)cc1C(F)F

>  <readout.label>
pIC50

>  <meas.value>
> 8.00

$$$$
>  <structure.smiles.string>
C[C@@]1(C(F)(F)F)CN(C(=O)Nc2cnc(-n3nccc3C#N)c(C#N)c2)c2cnc3cc(Cl)nn3c21

>  <readout.label>
pIC50

>  <meas.value>
> 8.00

$$$$
>  <structure.smiles.string>
COCc1cnn(-c2ncc(NC(=O)N3C[C@@](C)(C(F)(F)F)c4c3cnc3cc(Cl)nn43)cc2Cl)n1

>  <readout.label>
pIC50

>  <meas.value>
> 8.00

$$$$
>  <structure.smiles.string>
Cc1nnc(C(F)F)cc1NC(=O)N1C[C@@](C)(C(F)(F)F)c2c1cnc1cc(F)nn21

>  <readout.label>
pIC50

>  <meas.value>
6.00 to 7.00

$$$$
>  <structure.smiles.string>
C[C@@]1(C(F)(F)F)CN(C(=O)Nc2cnc([C@H](O)CO)c(Cl)c2)c2cnc3cc(Cl)nn3c21

>  <readout.label>
pIC50

>  <meas.value>
7.00 to 8.00

$$$$
>  <structure.smiles.string>
C[C@@]1(C(F)(F)F)CN(C(=O)n2nc(C(F)F)cc2N)c2cnc3cc(Cl)nn3c21

>  <readout.label>
pIC50

>  <meas.value>
< 6.00

$$$$
>  <structure.smiles.string>
C[C@]1(C(F)(F)F)CN(C(=O)Nc2cnnc(C(F)F)c2)c2cnc3cc(CC(F)(F)F)nn3c21

>  <readout.label>
pIC50

>  <meas.value>
< 6.00

$$$$
>  <structure.smiles.string>
O=C(Nc1cnnc(C(F)F)c1)N1C[C@@](C2CC2)(C(F)(F)F)c2c1cnc1cc(Cl)nn21

>  <readout.label>
pIC50

>  <meas.value>
7.00 to 8.00

$$$$
>  <structure.smiles.string>
C[C@@]1(C(F)(F)F)CN(C(=O)Nc2cnc(-n3ncc([C@@H](O)CO)n3)c(Cl)c2)c2cnc3cc(Cl)nn3c21

>  <readout.label>
pIC50

>  <meas.value>
> 8.00

$$$$
>  <structure.smiles.string>
C[C@@]1(C(F)F)CN(C(=O)Nc2cnc(OC(F)F)c(Cl)c2)c2cnc3cc(Cl)nn3c21

>  <readout.label>
pIC50

>  <meas.value>
> 8.00

$$$$
>  <structure.smiles.string>
C[C@@]1(C(F)(F)F)CN(C(=O)Nc2cnc(-n3nccn3)c(C(F)F)c2)c2cnc3cc(Cl)nn3c21

>  <readout.label>
pIC50

>  <meas.value>
> 8.00

$$$$
>  <structure.smiles.string>
O=C(Nc1cnnc(C(F)F)c1)N1C[C@](C2CC2)(C(F)(F)F)c2c1cnc1cc(Cl)nn21

>  <readout.label>
pIC50

>  <meas.value>
6.00 to 7.00

$$$$
